molecular target: p70S6K(h) (Homo sapiens); assay: Kinase Profiling Assay; assay type: biochemical; conditions: 100 μM
Sequence (P23443 whole entry): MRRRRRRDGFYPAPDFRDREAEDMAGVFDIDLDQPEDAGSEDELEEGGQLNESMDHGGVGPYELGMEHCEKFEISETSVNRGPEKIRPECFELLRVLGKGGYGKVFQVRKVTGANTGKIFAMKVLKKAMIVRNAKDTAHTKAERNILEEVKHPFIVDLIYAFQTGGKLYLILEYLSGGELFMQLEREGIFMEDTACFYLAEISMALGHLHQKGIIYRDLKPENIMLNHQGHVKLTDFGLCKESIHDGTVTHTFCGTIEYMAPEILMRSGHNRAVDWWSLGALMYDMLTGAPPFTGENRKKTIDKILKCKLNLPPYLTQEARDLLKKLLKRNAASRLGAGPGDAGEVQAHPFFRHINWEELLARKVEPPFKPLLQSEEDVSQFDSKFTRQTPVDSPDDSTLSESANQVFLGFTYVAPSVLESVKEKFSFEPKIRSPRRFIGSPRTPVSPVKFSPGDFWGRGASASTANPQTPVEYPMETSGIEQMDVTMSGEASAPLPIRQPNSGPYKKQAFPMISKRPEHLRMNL

- primary_sequence: "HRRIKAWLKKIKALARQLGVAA [MMI-0500]"
  % activity [%]: 3
- primary_sequence: "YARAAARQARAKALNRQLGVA [MMI-0200]"
  % activity [%]: 84
- primary_sequence: "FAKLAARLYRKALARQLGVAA [MMI-0300]"
  % activity [%]: 35
- primary_sequence: "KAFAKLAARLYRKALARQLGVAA [MMI-0400]"
  % activity [%]: 33

###

target: Rsk2(h) (Homo sapiens, UniProt P51812); assay: Kinase Profiling Assay; type: biochemical; details: 100 μM
Sequence (P51812 whole entry): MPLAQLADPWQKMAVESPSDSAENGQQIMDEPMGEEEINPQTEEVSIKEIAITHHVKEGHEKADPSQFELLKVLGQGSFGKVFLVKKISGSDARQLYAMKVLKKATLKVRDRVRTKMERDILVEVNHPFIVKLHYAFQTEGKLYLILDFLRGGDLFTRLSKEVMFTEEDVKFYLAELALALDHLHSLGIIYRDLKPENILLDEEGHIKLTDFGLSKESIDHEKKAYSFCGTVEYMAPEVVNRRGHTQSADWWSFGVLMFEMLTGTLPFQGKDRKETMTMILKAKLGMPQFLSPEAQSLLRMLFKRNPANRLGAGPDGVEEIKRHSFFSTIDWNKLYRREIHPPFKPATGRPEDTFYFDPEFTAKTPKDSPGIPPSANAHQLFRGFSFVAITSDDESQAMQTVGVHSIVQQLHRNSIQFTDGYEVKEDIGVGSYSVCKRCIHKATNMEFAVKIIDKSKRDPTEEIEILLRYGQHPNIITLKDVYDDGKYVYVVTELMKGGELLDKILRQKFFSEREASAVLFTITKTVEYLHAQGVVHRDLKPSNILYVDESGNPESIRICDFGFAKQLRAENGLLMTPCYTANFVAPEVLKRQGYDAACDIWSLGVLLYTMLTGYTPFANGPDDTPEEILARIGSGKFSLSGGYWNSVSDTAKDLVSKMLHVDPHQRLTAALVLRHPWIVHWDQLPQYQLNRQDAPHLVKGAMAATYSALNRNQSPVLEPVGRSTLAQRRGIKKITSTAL

- primary_sequence: "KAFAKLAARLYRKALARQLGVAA [MMI-0400]"
  % activity: "38%"
- primary_sequence: "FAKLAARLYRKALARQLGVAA [MMI-0300]"
  % activity: "51%"
- primary_sequence: "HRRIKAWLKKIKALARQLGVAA [MMI-0500]"
  % activity: "14%"
- primary_sequence: "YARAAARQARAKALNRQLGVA [MMI-0200]"
  % activity: "101%"

###

molecular target: EGFR(T790M, L858R)(h) (Homo sapiens, UniProt P00533, L858R/T790M); experiment: Kinase Profiling Assay; format: biochemical; conditions: 100 μM

- primary_sequence: "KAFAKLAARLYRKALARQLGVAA [MMI-0400]"
  study_system: "EGFR(T790M, L858R)(h) (Homo sapiens, UniProt P00533, L858R/T790M)"
  % activity / %: 78
- primary_sequence: "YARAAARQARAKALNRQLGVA [MMI-0200]"
  study_system: "EGFR(T790M, L858R)(h) (Homo sapiens, UniProt P00533, L858R/T790M)"
  % activity / %: 108
- primary_sequence: "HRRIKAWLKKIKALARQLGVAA [MMI-0500]"
  study_system: "EGFR(T790M, L858R)(h) (Homo sapiens, UniProt P00533, L858R/T790M)"
  % activity / %: 53
- primary_sequence: "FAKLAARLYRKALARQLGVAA [MMI-0300]"
  study_system: "EGFR(T790M, L858R)(h) (Homo sapiens, UniProt P00533, L858R/T790M)"
  % activity / %: 85

###

target: Met(h) (Homo sapiens); test: Kinase Profiling Assay; type: biochemical; settings: 100 μM
Sequence (P08581 25-1390): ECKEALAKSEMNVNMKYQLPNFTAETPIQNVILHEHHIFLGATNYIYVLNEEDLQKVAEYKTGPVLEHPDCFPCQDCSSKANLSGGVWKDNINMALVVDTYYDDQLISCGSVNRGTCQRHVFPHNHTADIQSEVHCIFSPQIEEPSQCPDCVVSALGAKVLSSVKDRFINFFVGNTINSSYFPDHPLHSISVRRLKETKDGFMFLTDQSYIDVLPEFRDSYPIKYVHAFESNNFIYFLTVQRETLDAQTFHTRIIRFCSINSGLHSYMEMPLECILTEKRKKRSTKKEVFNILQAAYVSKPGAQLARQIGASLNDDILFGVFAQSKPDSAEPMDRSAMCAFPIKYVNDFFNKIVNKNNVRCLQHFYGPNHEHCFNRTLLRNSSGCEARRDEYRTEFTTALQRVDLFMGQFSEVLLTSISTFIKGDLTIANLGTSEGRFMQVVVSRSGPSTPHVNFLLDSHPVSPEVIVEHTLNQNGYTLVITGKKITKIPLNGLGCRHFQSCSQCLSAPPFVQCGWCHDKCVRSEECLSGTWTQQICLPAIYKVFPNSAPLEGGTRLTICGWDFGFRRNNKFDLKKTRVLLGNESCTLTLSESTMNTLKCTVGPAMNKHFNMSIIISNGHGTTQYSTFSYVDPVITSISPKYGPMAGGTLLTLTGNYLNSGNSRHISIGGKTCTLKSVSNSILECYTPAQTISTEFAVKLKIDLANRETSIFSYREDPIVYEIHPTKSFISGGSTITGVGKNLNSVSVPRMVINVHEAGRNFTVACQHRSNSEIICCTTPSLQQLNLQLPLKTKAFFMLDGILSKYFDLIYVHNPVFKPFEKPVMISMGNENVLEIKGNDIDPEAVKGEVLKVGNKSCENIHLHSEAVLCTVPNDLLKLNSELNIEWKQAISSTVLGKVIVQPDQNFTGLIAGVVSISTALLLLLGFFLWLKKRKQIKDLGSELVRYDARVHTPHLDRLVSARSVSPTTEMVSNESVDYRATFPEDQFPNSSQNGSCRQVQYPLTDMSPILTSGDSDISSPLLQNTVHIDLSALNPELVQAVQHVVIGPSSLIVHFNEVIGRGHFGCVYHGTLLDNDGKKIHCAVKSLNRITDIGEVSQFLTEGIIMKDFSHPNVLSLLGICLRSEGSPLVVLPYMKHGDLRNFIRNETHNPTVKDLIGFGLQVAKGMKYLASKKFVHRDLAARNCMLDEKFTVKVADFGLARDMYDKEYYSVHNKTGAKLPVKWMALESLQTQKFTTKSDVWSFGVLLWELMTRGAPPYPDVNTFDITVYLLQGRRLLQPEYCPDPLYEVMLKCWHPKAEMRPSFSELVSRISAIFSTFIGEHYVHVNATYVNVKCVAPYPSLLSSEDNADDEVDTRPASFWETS

- primary_sequence: "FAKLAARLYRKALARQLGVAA [MMI-0300]"
  % activity: "65%"
- primary_sequence: "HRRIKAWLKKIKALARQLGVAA [MMI-0500]"
  % activity: "27%"
- primary_sequence: "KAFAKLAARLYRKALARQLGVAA [MMI-0400]"
  % activity: "62%"
- primary_sequence: "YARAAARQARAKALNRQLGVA [MMI-0200]"
  % activity: "71%"

###

Molecular target: GCK(h) (Homo sapiens, UniProt Q12851)
Sequence (Q12851 1-820): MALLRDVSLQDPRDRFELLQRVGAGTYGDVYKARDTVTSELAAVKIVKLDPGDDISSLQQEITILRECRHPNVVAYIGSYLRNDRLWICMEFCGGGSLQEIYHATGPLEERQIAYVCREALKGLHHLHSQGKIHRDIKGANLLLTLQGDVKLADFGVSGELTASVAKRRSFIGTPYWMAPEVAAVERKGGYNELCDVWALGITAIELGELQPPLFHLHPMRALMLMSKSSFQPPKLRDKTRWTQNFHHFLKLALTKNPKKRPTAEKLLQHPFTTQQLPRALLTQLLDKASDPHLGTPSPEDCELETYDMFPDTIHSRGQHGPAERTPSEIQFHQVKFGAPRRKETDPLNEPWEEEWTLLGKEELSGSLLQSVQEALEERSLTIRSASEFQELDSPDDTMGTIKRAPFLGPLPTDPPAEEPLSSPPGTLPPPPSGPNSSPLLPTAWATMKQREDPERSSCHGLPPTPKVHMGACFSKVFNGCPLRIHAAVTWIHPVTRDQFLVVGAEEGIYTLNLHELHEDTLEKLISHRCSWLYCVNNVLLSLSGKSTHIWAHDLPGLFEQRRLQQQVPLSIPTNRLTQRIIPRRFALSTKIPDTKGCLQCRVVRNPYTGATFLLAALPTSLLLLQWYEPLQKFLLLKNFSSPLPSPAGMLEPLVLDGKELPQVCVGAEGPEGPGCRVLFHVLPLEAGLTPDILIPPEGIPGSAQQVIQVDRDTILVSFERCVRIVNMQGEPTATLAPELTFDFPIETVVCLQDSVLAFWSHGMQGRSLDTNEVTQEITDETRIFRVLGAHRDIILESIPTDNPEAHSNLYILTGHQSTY
Assay: Kinase Profiling Assay
Assay type: biochemical
Settings: 100 μM
Items are presented alongside their recorded % activity.
readout: % activity (%)

- primary_sequence: "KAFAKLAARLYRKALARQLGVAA [MMI-0400]"
  readout: "% activity"
  scale_unit: "%"
  obs_value: 66
- primary_sequence: "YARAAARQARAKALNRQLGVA [MMI-0200]"
  readout: "% activity"
  scale_unit: "%"
  obs_value: 99
- primary_sequence: "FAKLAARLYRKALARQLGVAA [MMI-0300]"
  readout: "% activity"
  scale_unit: "%"
  obs_value: 70
- primary_sequence: "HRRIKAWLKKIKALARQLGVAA [MMI-0500]"
  readout: "% activity"
  scale_unit: "%"
  obs_value: 30

###

biological target: PAK4(h) (Homo sapiens, UniProt O96013); assay: Kinase Profiling Assay; assay type: biochemical; details: 100 μM
Sequence (O96013 whole entry): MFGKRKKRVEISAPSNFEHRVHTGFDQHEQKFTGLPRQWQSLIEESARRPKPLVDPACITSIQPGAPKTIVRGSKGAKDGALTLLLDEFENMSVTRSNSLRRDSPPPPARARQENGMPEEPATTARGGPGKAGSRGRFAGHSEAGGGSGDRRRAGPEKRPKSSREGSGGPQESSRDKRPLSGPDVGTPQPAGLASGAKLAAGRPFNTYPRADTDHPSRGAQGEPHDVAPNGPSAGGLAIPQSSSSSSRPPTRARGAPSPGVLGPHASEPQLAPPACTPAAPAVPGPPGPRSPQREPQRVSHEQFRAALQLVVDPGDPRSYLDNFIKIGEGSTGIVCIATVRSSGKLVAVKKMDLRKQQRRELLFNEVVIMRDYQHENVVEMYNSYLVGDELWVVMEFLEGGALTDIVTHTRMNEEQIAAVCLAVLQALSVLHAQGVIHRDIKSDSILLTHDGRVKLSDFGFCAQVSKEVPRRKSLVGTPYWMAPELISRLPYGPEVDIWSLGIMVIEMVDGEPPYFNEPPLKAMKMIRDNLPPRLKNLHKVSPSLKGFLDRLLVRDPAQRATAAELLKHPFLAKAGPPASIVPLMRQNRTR
Quick list: % activity per entry.
readout: % activity (%)

- primary_sequence: "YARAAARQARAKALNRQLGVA [MMI-0200]"
  readout: "% activity"
  obs_value: 98
- primary_sequence: "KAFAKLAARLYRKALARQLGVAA [MMI-0400]"
  readout: "% activity"
  obs_value: 89
- primary_sequence: "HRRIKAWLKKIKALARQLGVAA [MMI-0500]"
  readout: "% activity"
  obs_value: 86
- primary_sequence: "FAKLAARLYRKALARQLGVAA [MMI-0300]"
  readout: "% activity"
  obs_value: 94

###

biological target: Pim-1(h) (Homo sapiens); assay: Kinase Profiling Assay; type: biochemical; details: 100 μM
Sequence (P11309 whole entry): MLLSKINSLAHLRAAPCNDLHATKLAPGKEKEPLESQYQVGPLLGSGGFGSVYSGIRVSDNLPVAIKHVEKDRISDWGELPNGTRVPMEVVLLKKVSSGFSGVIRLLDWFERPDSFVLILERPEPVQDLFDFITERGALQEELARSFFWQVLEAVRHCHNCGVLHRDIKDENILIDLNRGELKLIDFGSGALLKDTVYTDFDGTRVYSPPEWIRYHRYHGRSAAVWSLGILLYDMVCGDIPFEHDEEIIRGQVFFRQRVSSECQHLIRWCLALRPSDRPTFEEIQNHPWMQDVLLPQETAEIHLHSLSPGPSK
readout: % activity (%)

- primary_sequence: "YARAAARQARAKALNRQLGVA [MMI-0200]"
  readout: "% activity"
  scale_unit: "%"
  obs_value: 18
- primary_sequence: "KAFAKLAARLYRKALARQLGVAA [MMI-0400]"
  readout: "% activity"
  scale_unit: "%"
  obs_value: 7
- primary_sequence: "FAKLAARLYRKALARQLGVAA [MMI-0300]"
  readout: "% activity"
  scale_unit: "%"
  obs_value: 8
- primary_sequence: "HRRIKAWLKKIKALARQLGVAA [MMI-0500]"
  readout: "% activity"
  scale_unit: "%"
  obs_value: 0

###

biological target: PDGFRα(h) (Homo sapiens); experiment: Kinase Profiling Assay; assay type: biochemical; conditions: 100 μM
Sequence (P16234 24-1089): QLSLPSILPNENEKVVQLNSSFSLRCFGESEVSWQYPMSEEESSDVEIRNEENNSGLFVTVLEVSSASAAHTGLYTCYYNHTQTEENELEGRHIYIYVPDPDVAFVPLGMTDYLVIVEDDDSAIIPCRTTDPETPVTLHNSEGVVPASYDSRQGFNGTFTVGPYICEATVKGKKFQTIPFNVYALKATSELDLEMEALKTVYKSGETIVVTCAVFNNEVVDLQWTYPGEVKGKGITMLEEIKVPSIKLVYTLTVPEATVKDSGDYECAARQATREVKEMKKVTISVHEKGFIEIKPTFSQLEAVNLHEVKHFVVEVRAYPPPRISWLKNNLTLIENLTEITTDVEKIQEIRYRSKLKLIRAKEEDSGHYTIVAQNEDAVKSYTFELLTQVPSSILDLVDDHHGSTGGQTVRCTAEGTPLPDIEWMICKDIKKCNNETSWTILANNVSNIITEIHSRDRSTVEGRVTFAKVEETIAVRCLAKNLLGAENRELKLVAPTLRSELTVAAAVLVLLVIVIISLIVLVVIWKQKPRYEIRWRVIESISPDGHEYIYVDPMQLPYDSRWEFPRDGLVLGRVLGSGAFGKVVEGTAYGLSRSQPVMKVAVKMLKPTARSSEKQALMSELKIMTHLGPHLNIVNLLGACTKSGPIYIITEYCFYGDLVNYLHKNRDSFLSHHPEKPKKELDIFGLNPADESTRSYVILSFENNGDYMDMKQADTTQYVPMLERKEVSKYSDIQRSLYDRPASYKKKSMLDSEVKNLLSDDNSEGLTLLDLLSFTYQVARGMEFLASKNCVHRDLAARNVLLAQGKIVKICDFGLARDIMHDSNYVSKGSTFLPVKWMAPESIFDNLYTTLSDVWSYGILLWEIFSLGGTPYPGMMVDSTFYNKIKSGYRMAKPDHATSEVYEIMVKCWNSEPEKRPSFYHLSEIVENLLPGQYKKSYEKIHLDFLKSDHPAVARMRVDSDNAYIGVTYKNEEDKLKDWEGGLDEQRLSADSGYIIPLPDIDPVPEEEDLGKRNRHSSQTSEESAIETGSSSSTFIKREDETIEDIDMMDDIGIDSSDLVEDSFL

- primary_sequence: "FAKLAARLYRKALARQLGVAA [MMI-0300]"
  scale_unit: "%"
  % activity: 65
- primary_sequence: "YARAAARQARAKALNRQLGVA [MMI-0200]"
  scale_unit: "%"
  % activity: 108
- primary_sequence: "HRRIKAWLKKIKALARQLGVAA [MMI-0500]"
  scale_unit: "%"
  % activity: 40
- primary_sequence: "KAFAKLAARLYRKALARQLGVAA [MMI-0400]"
  scale_unit: "%"
  % activity: 40

###

biological target: Pim-2(h) (Homo sapiens, UniProt Q9P1W9); test: Kinase Profiling Assay; assay type: biochemical; settings: 100 μM
Sequence (Q9P1W9 whole entry): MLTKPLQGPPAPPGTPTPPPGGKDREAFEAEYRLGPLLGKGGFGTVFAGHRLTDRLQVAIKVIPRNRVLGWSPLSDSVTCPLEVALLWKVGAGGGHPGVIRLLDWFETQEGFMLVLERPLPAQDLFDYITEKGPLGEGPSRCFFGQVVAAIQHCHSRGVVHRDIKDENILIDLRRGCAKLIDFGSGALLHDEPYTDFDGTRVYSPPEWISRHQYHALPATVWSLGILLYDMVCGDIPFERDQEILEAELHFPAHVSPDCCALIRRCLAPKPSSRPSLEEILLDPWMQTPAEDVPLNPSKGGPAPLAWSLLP

- primary_sequence: "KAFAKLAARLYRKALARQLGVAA [MMI-0400]"
  % activity: "92%"
- primary_sequence: "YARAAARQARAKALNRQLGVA [MMI-0200]"
  % activity: "74%"
- primary_sequence: "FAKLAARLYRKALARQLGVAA [MMI-0300]"
  % activity: "76%"
- primary_sequence: "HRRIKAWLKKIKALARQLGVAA [MMI-0500]"
  % activity: "46%"

###

Molecular target: PKCμ(h) (Homo sapiens, UniProt Q15139)
Sequence (Q15139 1-912): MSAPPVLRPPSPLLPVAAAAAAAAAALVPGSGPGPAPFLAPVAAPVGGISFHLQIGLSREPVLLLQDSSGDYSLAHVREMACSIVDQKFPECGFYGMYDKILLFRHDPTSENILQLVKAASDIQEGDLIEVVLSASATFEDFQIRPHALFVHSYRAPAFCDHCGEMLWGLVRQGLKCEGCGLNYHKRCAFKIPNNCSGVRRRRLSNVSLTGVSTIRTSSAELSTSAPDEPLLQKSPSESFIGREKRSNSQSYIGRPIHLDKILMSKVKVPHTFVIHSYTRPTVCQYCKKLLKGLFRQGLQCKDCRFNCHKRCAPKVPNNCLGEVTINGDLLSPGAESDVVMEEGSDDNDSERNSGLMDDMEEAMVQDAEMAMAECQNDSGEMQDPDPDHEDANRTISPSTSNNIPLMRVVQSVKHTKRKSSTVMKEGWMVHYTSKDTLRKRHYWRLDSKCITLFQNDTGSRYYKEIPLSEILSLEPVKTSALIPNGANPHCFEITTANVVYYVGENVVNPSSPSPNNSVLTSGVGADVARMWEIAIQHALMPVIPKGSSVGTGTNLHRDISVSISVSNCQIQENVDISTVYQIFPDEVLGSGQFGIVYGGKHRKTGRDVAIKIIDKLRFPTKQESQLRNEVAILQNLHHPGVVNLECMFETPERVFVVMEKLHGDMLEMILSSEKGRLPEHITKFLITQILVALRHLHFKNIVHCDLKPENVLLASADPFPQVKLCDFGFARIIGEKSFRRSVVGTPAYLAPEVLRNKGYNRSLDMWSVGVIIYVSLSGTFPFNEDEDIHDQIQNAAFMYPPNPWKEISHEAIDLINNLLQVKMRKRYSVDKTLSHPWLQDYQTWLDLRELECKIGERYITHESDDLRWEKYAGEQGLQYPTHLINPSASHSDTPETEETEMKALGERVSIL
Experiment: Kinase Profiling Assay
Format: biochemical
Conditions: 100 μM
This listing pairs sequences with measured % activity.

- primary_sequence: "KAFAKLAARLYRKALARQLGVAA [MMI-0400]"
  study_system: "PKCμ(h) (Homo sapiens, UniProt Q15139)"
  scale_unit: "%"
  % activity: 14
- primary_sequence: "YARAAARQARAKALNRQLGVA [MMI-0200]"
  study_system: "PKCμ(h) (Homo sapiens, UniProt Q15139)"
  scale_unit: "%"
  % activity: 73
- primary_sequence: "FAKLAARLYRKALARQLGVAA [MMI-0300]"
  study_system: "PKCμ(h) (Homo sapiens, UniProt Q15139)"
  scale_unit: "%"
  % activity: 22
- primary_sequence: "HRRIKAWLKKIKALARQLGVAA [MMI-0500]"
  study_system: "PKCμ(h) (Homo sapiens, UniProt Q15139)"
  scale_unit: "%"
  % activity: 10
